- Test system: P493-6 (myc “on”) cells
- experimental_protocol: Cell Proliferation Assay
- Type: cell-based
- experimental_context: P493-6, 72 h, read-out: Cell prolif P493 72 h IC50
pIC50: −log10 of the molar value.
measured_property: pIC50

[[record]]
query_smiles = "[2H]C([2H])(CCc1nnc(N)s1)C([2H])([2H])c1ccc(NC(=O)Cc2cccc(OC(F)(F)F)c2)nn1"
result_number = 6.21

